# Target Under Test: hGLP-1R (Homo sapiens)
# Sequence (P43220 24-463): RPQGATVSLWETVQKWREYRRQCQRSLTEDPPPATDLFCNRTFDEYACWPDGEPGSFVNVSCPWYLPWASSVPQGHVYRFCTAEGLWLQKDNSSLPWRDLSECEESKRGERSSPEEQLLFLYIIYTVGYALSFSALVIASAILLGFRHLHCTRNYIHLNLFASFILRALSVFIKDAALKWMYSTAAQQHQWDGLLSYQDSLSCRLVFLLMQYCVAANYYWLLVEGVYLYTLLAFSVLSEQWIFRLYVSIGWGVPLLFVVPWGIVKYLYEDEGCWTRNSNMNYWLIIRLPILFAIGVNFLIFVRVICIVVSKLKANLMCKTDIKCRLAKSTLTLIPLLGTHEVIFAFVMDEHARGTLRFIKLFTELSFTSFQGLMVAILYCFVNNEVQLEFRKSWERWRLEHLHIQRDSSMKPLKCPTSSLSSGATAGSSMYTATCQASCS
# Measurement Description: Functional cAMP activity in the presence of 1% HSA
# Assay type: cell-based
# Assay Context: read-out: cAMP Rel EC50, hGLP-1R
Starred links: 1 amine or outer side, 2 acyl side, 3 side chain; linkers in the order of their positions; H or OH if unused. Non-standard residues stand in square brackets, D forms with d. Groups on a side chain read outwards from the residue. No end group written: not given here. *: point of attachment. C20 diacid = O=C(O)CCCCCCCCCCCCCCCCCCC(=O)*; C18 diacid = O=C(O)CCCCCCCCCCCCCCCCC(=O)*; αMePhe(2-F) = C[C@](N)(Cc1ccccc1F)C(=O)O; γGlu = O=C(O)[C@H](CCC(=O)[*:2])N[*:1]; αMe4Pal = C[C@](N)(Cc1ccncc1)C(=O)O; αMeY = C[C@](N)(Cc1ccc(O)cc1)C(=O)O; αMeF = C[C@](N)(Cc1ccccc1)C(=O)O; 4Pal = N[C@@H](Cc1ccncc1)C(=O)O; αMeL = CC(C)C[C@](C)(N)C(=O)O; αMeS = C[C@](N)(CO)C(=O)O; Orn = NCCC[C@H](N)C(=O)O; AEEA = NCCOCCOCC(=O)O; Aib = CC(C)(N)C(=O)O
# log10(EC50) annotations
Measurement Label: log10(EC50) (log10 of the value in nM)

[
  {
    "Substance": "H-Y[Aib]QGT[αMePhe(2-F)]TSD[4Pal][αMeS]I[αMeL]LD[Orn]K([AEEA-γGlu-C18 diacid])AQ[αMe4Pal]EFI[dE][αMeY]LIEGGPSSGAPPPTGE-NH2 [Example 1142]",
    "Target Under Test": "hGLP-1R (Homo sapiens)",
    "log10(EC50)": 1.58
  },
  {
    "Substance": "H-Y[Aib]QGT[αMePhe(2-F)]TSD[4Pal]SILLDKK([γGlu-γGlu-C18 diacid])AQ[Aib]AFIEWLQEGGPSSGEPPPSGTEE-NH2 [Example 579]",
    "Target Under Test": "hGLP-1R (Homo sapiens)",
    "log10(EC50)": 1.83
  },
  {
    "Substance": "Y[Aib]QGTFTSD[4Pal]SQ[αMeL]LD[Orn]K([γGlu-γGlu-C18 diacid])AQ[αMe4Pal]AFIEYLIAGGPSSGAPPPSGSEE-NH2 [Example 1031]",
    "Target Under Test": "hGLP-1R (Homo sapiens)",
    "log10(EC50)": 2.18
  },
  {
    "Substance": "H-Y[Aib]QGTFTSD[4Pal]SQ[αMeL]LD[Orn]K([AEEA-γGlu-C18 diacid])AQ[αMe4Pal]AFIE[αMeY]LIE[Aib]GPSSGEPPPSGSEE-NH2 [Example 1097]",
    "Target Under Test": "hGLP-1R (Homo sapiens)",
    "log10(EC50)": 2.15
  },
  {
    "Substance": "Y[Aib]QGT[αMePhe(2-F)]TSDYSILLDAQAAK([AEEA-γGlu-C20 diacid])EFIEYLIEGGPSSGEPPPSEG-NH2 [Example 351]",
    "Target Under Test": "hGLP-1R (Homo sapiens)",
    "log10(EC50)": 2.43
  },
  {
    "Substance": "Y[Aib]QGT[αMeF]TSD[4Pal][αMeS]I[αMeL]LD[Orn]K([γGlu-γGlu-C18 diacid])AQ[αMe4Pal]EFI[dE][αMeY]LIEGGPSSGAPPPSGGGE-NH2 [Example 1174]",
    "Target Under Test": "hGLP-1R (Homo sapiens)",
    "log10(EC50)": 1.78
  },
  {
    "Substance": "Y[Aib]QGTFTSD[4Pal]S[Orn][αMeL]LDKK([γGlu-γGlu-C18 diacid])AQ[Aib]AFIE[αMeY]LLEGGPSSGAPPPSGSEE-NH2 [Example 944]",
    "Target Under Test": "hGLP-1R (Homo sapiens)",
    "log10(EC50)": 2.99
  }
]
